Every entry's value here was drawn from patent US20060193821.

The entries below are paired with their reported IC50.
Target: T1, IL-23 (mouse, p19/p40 heterodimer) (Mus musculus, UniProt Q9EQ14;P43432 SEQ:22-196,SEQ:23-335)
T1 sequence 1: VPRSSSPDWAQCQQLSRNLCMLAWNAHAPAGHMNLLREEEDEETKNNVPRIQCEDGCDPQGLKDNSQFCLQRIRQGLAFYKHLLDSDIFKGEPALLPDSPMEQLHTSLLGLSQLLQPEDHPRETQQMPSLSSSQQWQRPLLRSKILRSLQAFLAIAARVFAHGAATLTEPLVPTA
T1 sequence 2: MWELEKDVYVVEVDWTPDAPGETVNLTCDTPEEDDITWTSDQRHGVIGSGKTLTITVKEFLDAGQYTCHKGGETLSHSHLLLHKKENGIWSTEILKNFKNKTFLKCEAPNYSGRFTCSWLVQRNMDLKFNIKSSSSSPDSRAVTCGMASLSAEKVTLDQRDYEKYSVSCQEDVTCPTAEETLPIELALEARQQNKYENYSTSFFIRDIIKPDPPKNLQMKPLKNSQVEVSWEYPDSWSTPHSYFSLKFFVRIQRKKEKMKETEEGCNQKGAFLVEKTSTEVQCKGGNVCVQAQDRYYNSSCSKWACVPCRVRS
Assay: cell_activity; TransAM STAT3
Settings: tags: isolated in-house
Kindly provide the numeric value in nM only, without the unit symbol.

{"columns": ["binder", "units.of.measure", "IC50"],
 "data": [
  ["ARC1632 (ssRNA, 2'-F C,U) RNA: GGAGCGCACUCAGCCACCGGCUUAAUAUCCAAUAGGAACGUUCGCUCUGAGCAGGCGUUUCGACCUCUCUGCUAGC", "nM", 18],
  ["ARC1628 (ssRNA, 2'-F C,U) RNA: GGAGCGCACUCAGCCACAGGUGGCUUAAUACUGUAAAGACGUGCGCGCAGAGGGAUUUUCGACCUCUCUGCUAGC", "nM", 37],
  ["ARC1634 (ssRNA, 2'-F C,U) RNA: GGAGCGCACUCAGCCACCUUGGGCUUAAUACCUAUCGGAUGUGCGCCUAGCACGGAAUUUCGACCUCUCUGCUAGC", "nM", 9]
]}

What value of IC50 has been recorded for this entry: ARC1633 (ssRNA, 2'-F C,U) RNA: GGAGCGCACUCAGCCACAGCUCGGUGGCUUAAUAUCUAUGUGAACGUGCGCAACAGCUUUCGACCUCUCUGCUAGC
31

Follow-up entry: GGGCACUCAGCCACAGGUGGCUUAAUACUGUAAAGACGUGCCC (ssRNA, 2'-F C,U) [ARC1739 (ARC1628 minimer)]
18

Record: GGGCACUCAGCCACCUUGGGCUUAAUACCUAUCGGAUGUGCCC (ssRNA, 2'-F C,U) [ARC1634 minimer]
26

What about GGGCACUCAGCCACAGCUCGGUGGCUUAAUAUCUAUGUGAACGUGCCC (ssRNA, 2'-F C,U) [ARC1633 minimer] ?
7
